Experiment: NIH3T3 cell viability loss – ATP luminescence, mouse fibroblasts, counter-screen, dose response (AID 2010);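 also: cells exposed to compound for about 90 hours before reading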
Format: functional, cell-based
Calls of active or inactive are those of the source.

compound	EC50
CCc1ccc(C(=O)Cn2ncc(Cl)c(Cl)c2=O)cc1	4.03 µM (active)
N=c1c(C(=O)NCc2ccc(F)cc2)cc2c(=O)n3ccccc3nc2n1Cc1cccnc1	> 60 µM (not active)
COc1ccc(C2=NN(C(=O)c3cccs3)C(c3ccccc3O)C2)cc1 (stereo not drawn)	> 60 µM (not active)

* * *

Target: Corticotropin-releasing factor receptor 2/Corticotropin-releasing factor-binding protein (Homo sapiens, UniProt P24387+Q13324)
Sequence (Q13324 whole entry): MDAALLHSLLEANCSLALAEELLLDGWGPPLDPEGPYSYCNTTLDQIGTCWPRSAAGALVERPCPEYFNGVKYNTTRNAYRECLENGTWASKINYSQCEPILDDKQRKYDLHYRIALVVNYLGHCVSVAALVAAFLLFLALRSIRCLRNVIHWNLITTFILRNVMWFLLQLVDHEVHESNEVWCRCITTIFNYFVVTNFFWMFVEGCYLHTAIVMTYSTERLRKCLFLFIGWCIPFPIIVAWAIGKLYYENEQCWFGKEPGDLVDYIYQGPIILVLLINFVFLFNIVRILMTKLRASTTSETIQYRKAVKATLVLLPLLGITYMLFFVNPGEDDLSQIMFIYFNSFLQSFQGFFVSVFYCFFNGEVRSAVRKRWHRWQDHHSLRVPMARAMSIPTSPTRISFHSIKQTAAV
Sequence (P24387 whole entry): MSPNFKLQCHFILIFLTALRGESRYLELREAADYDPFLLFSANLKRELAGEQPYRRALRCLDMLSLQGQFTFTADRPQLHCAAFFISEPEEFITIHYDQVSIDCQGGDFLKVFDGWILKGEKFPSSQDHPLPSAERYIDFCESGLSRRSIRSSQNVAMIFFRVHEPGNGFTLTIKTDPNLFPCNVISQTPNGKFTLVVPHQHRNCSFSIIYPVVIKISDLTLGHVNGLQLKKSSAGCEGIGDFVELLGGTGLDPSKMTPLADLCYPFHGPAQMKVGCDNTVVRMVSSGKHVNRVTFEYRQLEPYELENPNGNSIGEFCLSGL
Test: Dose Response confirmation of uHTS hits for small molecule antagonists of the CRF-binding protein and CRF-R2 receptor complex.
Type: functional
Details: read-out: IC50_Mean
The source made the active and inactive calls.
Outcome codes: True for active, False for inactive

compound	assigned label
N#Cc1c(C(F)(F)F)cc(-c2ccc(Cl)cc2)nc1O	True
Cc1ccc(NS(=O)(=O)c2ccc(C(=O)Nc3nncs3)cc2)cc1	False
COC(=O)C(CC(=O)c1cccc(OC)c1)c1ccc(F)cc1 (stereo unspecified)	False
CC1CCCCN1C(C(=O)O)c1ccccc1 (stereo unspecified)	False
CC1=C(C(=O)OC(C)C)C(c2cccs2)N2C(=O)C(C)SC2=N1 (stereo unspecified)	False
C=C(C)C(=O)Oc1ccc(N2C(=O)[C@@H]3C4C=CC(C4)[C@@H]3C2=O)cc1	False
CC(C)c1cc(N2CCC(=O)NC2=O)cc(C(=O)O)c1O	False
CCOc1ccc(N2CC(C(=O)NCc3nnnn3-c3ccc(C)c(C)c3)CC2=O)cc1 (stereo unspecified)	False
O=C(CCC(=O)OCC(F)(F)C(F)F)NCc1ccccc1	False
CCC(C)NS(=O)(=O)c1ccc(OCC(=O)NCc2ccccn2)cc1 (stereo unspecified)	False
COc1ccccc1CNC(=O)CCc1nnc2ccc(NCCCN3CCCC3=O)nn12	False
